Molecular target: UniProt:P11597
Sequence (P11597 whole entry): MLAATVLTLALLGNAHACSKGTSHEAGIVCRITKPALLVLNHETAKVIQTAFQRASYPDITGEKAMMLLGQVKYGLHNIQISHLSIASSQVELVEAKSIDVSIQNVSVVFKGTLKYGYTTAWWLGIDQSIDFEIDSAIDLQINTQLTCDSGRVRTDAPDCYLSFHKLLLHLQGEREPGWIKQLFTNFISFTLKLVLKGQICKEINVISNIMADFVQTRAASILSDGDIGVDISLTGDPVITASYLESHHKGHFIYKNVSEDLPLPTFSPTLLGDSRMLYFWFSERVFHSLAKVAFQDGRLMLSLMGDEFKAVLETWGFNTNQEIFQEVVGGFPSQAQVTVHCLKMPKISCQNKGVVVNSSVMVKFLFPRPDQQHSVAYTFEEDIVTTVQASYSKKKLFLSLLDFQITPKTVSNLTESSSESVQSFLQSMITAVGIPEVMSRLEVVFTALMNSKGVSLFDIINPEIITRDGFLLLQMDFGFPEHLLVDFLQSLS
Experiment: Inhibition of CETP in human whole plasma assessed as reduction in [3H]-CE/HDL transfer incubated for 2.5 hrs by topcount scintillation counting assay
Type: cell-free
Property Label: IC50 (µM)

Example cases with answers are listed next.
- CC(C)NC(C(=O)N[C@](Cc1ccccc1)(c1ccc(F)cc1)c1cc(F)cc(C(F)(F)F)c1)C(O)(C(F)(F)F)C(F)(F)F (stereo not given in full): 7.1
- NC(C(=O)N[C@](Cc1ccccc1)(c1ccc(F)cc1)c1cc(F)cc(C(F)(F)F)c1)C(O)(C(F)(F)F)C(F)(F)F (stereo not given in full): 0.43
- CC(C)Oc1cc([C@@](Cc2ccccc2)(NCC(O)C(O)(C(F)(F)F)C(F)(F)F)c2cc(F)cc(OC(F)(F)C(F)F)c2)ccc1F (stereo not given in full): 0.058

I: O=C(CC(O)(C(F)(F)F)C(F)(F)F)N[C@@](Cc1ccccc1)(c1cc(F)cc(C(F)(F)F)c1)c1ccc(Cl)cn1
II: CNC(C(=O)N[C@](Cc1ccccc1)(c1ccc(F)cc1)c1cc(F)cc(C(F)(F)F)c1)C(O)(C(F)(F)F)C(F)(F)F (stereo not given in full)
Query: Between the entries labeled I and II , whose measured IC50 is lower? Lab log: write the label of the selected item as the result.
Reply: I
